# system under test: human GPR84 receptor (Homo sapiens)
# Construct: frozen aliquots prepared by acCELLerate
# protocol notes: cAMP HTRF assay for identification of cellular GPR84 antagonists
# details: CHO-K1 cells stably expressing human GPR84; Forskolin + agonist 6-OAU (EC80); average or median values
quantity name: pIC50
Keep it numeric: pIC50 is minus log10 of the concentration in mol/L.

compound | pIC50
O=C(NC[C@H]1COCCO1)c1oc2c(c1C(F)(F)F)-c1nn(C[C@H]3COCCO3)cc1CC2 | 6.49
Cc1cccc(Cn2cc3c(n2)-c2c(oc(C(=O)NCC4CCCO4)c2C)CC3)n1 (single isomer, unassigned) [Example 66-1] | 7.20
Cc1c(C(=O)NCc2cc(C(F)(F)F)on2)oc2c1-c1nn(Cc3ccccn3)cc1CC2 | 6.80

// query Report value only: pIC50, human GPR84 receptor (Homo sapiens), C[C@@H]1Cc2oc(C(=O)NCc3cnccn3)c(C(F)(F)F)c2-c2nn(C[C@H]3COCCO3)cc21 (single isomer, unassigned)
// result 7.62

// query Report value only: pIC50, human GPR84 receptor (Homo sapiens), O=C(NC[C@H]1COCCO1)c1oc2c(c1C(F)(F)F)-c1nn(C[C@@H]3COCCO3)cc1CC2
// result 6.14

// query Report value only: pIC50, human GPR84 receptor (Homo sapiens), CC1Cc2oc(C(=O)NC[C@@H]3COCCO3)c(C(F)(F)F)c2-c2nn(C[C@H]3COCCO3)cc21 (single isomer, unassigned) [Example 254-2]
// result 7.34

// query Report value only: pIC50, human GPR84 receptor (Homo sapiens), Cc1c(C(=O)NCC2COCC(C)(C)O2)oc2c1-c1nn(Cc3ccccn3)cc1CC2 (racemic)
// result 6.99

---

# system under test: human GPR84 receptor (Homo sapiens, UniProt Q9NQS5)
# Construct: frozen aliquots prepared by acCELLerate
# Sequence (Q9NQS5 whole entry): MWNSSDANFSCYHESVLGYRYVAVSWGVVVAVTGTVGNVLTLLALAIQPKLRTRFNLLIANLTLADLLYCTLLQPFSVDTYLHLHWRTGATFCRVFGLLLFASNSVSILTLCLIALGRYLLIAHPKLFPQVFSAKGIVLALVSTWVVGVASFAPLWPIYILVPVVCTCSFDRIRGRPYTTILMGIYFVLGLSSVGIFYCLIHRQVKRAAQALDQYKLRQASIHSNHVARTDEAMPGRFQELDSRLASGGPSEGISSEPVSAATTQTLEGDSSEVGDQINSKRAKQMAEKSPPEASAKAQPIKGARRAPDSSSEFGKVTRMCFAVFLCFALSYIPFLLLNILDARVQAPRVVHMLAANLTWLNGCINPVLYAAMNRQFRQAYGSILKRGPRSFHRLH
# protocol notes: cAMP HTRF assay for identification of cellular GPR84 antagonists
# details: CHO-K1 cells stably expressing human GPR84; Forskolin + agonist 6-OAU (EC80); average or median values
# note: boundary value 0.2 µM maps to rule not met; IC50 below it maps to rule met

compound | label class
Cc1c(C(=O)NC[C@@H]2COCCO2)oc2c1-c1nn(C[C@H]3COCCO3)cc1C1(CCC1)C2 | rule met

// query Please indicate whether the reported IC50 of O=C(NCc1cncs1)c1oc2c(c1C(F)(F)F)-c1nn(C[C@H]3COCCO3)cc1CC2 is strictly below 0.2 µM.
// result rule not met

// query Please indicate whether the reported IC50 of C[C@@H]1Cc2oc(C(=O)NCc3nccs3)c(C(F)(F)F)c2-c2nn(C[C@H]3COCCO3)cc21 (single isomer, unassigned) is strictly below 0.2 µM.
// result rule met

// query Please indicate whether the reported IC50 of Cc1ccc(Cn2cc3c(n2)-c2c(oc(C(=O)NC[C@@H]4CCCO4)c2C)CC32CC2)cn1 is strictly below 0.2 µM.
// result rule met

// query Please indicate whether the reported IC50 of Cc1ccnc(CCNC(=O)c2oc3c(c2C(F)(F)F)-c2nn(C[C@H]4COCCO4)cc2CC3)c1 is strictly below 0.2 µM.
// result rule not met

// query Please indicate whether the reported IC50 of Cc1c(C(=O)NC[C@@H]2COCCO2)oc2c1-c1nn(Cc3ncccc3Cl)cc1CC2 is strictly below 0.2 µM.
// result rule met

---

# system under test: human GPR84 receptor (Homo sapiens, UniProt Q9NQS5)
# Construct: frozen aliquots prepared by acCELLerate
# protocol notes: cAMP HTRF assay for identification of cellular GPR84 antagonists
# details: CHO-K1 cells stably expressing human GPR84; Forskolin + agonist 6-OAU (EC80); average or median values
Quick list: log10(IC50) per entry.
A difference of one corresponds to tenfold IC50; all values are log10 with IC50 in nM.

// query Quickly give me recorded log10(IC50) for Cc1c(C(=O)NCC2CCOCC2)oc2c1-c1nn(Cc3ccccn3)cc1CC2
// result 3.57

// query Quickly give me recorded log10(IC50) for Cc1c(C(=O)NC[C@@H]2CCCO2)oc2c1-c1nn(CC3COC3)cc1CC2
// result 1.81

// query Quickly give me recorded log10(IC50) for Cc1c(C(=O)NCc2ccn(C)n2)oc2c1-c1nn(Cc3ccccn3)cc1CC2
// result 2.45

// query Quickly give me recorded log10(IC50) for Cc1c(C(=O)NCc2ccon2)oc2c1-c1nn(CC3COc4ncccc4O3)cc1CC2 (racemic) [Example 55]
// result 1.69

// query Quickly give me recorded log10(IC50) for Cc1c(C(=O)NCCN2CCN(C)CC2)oc2c1-c1nn(Cc3ccccn3)cc1CC2
// result 3.21

// query Quickly give me recorded log10(IC50) for O=C(NC[C@@H]1COCCO1)c1oc2c(c1C(F)(F)F)-c1nn(CC3CCOCC3)cc1CC2
// result 1.46

// query Quickly give me recorded log10(IC50) for Cc1ccc(Cn2cc3c(n2)-c2c(oc(C(=O)NC[C@@H]4COCCO4)c2C)CC3)cn1
// result 1.81

// query Quickly give me recorded log10(IC50) for Cc1cccc(CNC(=O)c2oc3c(c2C(F)(F)F)-c2nn(C[C@H]4COCCO4)cc2CC3)n1
// result 2.70

// query Quickly give me recorded log10(IC50) for CC1COC(CNC(=O)c2oc3c(c2C(F)(F)F)-c2nn(C[C@H]4COCCO4)cc2[C@H](C)C3)C1 (single isomer, unassigned)
// result 1.32

// query Quickly give me recorded log10(IC50) for Cc1cccc(CNC(=O)c2oc3c(c2C(F)(F)F)-c2nn(C[C@H]4COCCO4)cc2[C@H](C)C3)n1 (single isomer, unassigned)
// result 2.42

---

# system under test: human GPR84 receptor (Homo sapiens)
# Construct: frozen aliquots prepared by acCELLerate
# protocol notes: cAMP HTRF assay for identification of cellular GPR84 antagonists
# details: CHO-K1 cells stably expressing human GPR84; Forskolin + agonist 6-OAU (EC80); average or median values
# Excerpt: cAMP HTRF® Assay for Identification of Cellular GPR84 Antagonists By using a Homogenous Time-Resolved Fluorescence (HTRF®) based assay (#62AM5PEJ, Cisbio, Condolet, France) the inhibition of the Gi-coupled GPR84 receptor can be detected. […] Detection and quantification of cellular cAMP levels in this HTRF assay is achieved by interaction between a fluorescent cAMP tracer (cAMP-d2) and an Eu-cryptate labelled anti-cAMP antibody. […]
quantity name: pIC50
Keep it numeric: pIC50 is minus log10 of the concentration in mol/L.

Worked set:
molecule | pIC50
Cc1c(C(=O)NC[C@@H]2COCCO2)oc2c1-c1nn(C[C@H]3COCCO3)cc1CC2 [Example 90] | 7.33
Cc1c(C(=O)NCCc2ccccc2)oc2c1-c1nn(Cc3ccccn3)cc1CC2 [Example 42] | 5.82
O=C(NC[C@@H]1CCCO1)c1oc2c(c1C1CC1)-c1nn(C[C@H]3COCCO3)cc1CC2 [Example 194] | 7.52

// query Quickly give me recorded pIC50 for Cc1c(C(=O)NC[C@@H]2CCCO2)oc2c1-c1nn(Cc3ccccn3)cc1C(C)(C)C2 [Example 148]
// result 7.46

// query Quickly give me recorded pIC50 for Cc1ccc(Cn2cc3c(n2)-c2c(oc(C(=O)NC[C@@H]4COCCO4)c2C(F)(F)F)CC3C)cn1 (mixture of isomers) [Example 252]
// result 8.05

// query Quickly give me recorded pIC50 for Cc1c(C(=O)NC[C@@H]2CCCO2)oc2c1-c1nn(Cc3ccc(C(F)(F)F)cn3)cc1CC2 [Example 57]
// result 6.72

// query Quickly give me recorded pIC50 for Cc1c(C(=O)NC[C@@H]2COCCO2)oc2c1-c1nn(C[C@H]3COCCO3)cc1C(C)C2 (mixture of isomers) [Example 248]
// result 6.84

// query Quickly give me recorded pIC50 for Cc1c(C(=O)NC[C@@H]2CCCO2)oc2c1-c1nn(CCN3CCN(C(=O)OC(C)(C)C)CC3)cc1CC2 [Example 141]
// result 6.15

---

Quick list: IC50 per entry.
# system under test: human GPR84 receptor (Homo sapiens)
# Construct: frozen aliquots prepared by acCELLerate
# protocol notes: cAMP HTRF assay for identification of cellular GPR84 antagonists
# details: CHO-K1 cells stably expressing human GPR84; Forskolin + agonist 6-OAU (EC80); average or median values
# Text: cAMP HTRF® Assay for Identification of Cellular GPR84 Antagonists By using a Homogenous Time-Resolved Fluorescence (HTRF®) based assay (#62AM5PEJ, Cisbio, Condolet, France) the inhibition of the Gi-coupled GPR84 receptor can be detected. […] Detection and quantification of cellular cAMP levels in this HTRF assay is achieved by interaction between a fluorescent cAMP tracer (cAMP-d2) and an Eu-cryptate labelled anti-cAMP antibody. […]
Response body: numeric value in nM, unit text excluded.

// query Quickly give me recorded IC50 for Cc1c(C(=O)NCc2cc(C(C)C)on2)oc2c1-c1nn(Cc3ccccn3)cc1CC2
// result 97

// query Quickly give me recorded IC50 for Cc1c(C(=O)NC[C@@H]2COCCO2)oc2c1-c1nn(C[C@H]3COCCO3)cc1[C@H](C(F)(F)F)C2 (single isomer, unassigned) [Example 265-1]
// result 185

// query Quickly give me recorded IC50 for Cc1c(C(=O)NC[C@@H]2COCCO2)oc2c1-c1nn(C[C@H]3COCCO3)cc1C(C(F)(F)F)C2 (mixture of isomers)
// result 238

// query Quickly give me recorded IC50 for Cc1c(C(=O)NC[C@@H]2CCCO2)oc2c1-c1nn(Cc3ccc(C(=O)NC[C@@H]4CCCO4)nc3)cc1CC2
// result 47

// query Quickly give me recorded IC50 for Cc1c(C(=O)NCCN2CCN(c3ccc(C(F)(F)F)cn3)CC2)oc2c1-c1nn(Cc3ccccn3)cc1CC2
// result 2760

// query Quickly give me recorded IC50 for O=C(NC[C@@H]1COCCO1)c1oc2c(c1C(F)F)-c1nn(C[C@H]3COCCO3)cc1CC2
// result 53

// query Quickly give me recorded IC50 for Cc1c(C(=O)NC[C@@H]2COCCO2)oc2c1-c1nn(C[C@H]3CCCO3)cc1CC2
// result 77
